# assayed_system: UniProtKB Q9QUQ5
# Sequence (Q9QUQ5 whole entry): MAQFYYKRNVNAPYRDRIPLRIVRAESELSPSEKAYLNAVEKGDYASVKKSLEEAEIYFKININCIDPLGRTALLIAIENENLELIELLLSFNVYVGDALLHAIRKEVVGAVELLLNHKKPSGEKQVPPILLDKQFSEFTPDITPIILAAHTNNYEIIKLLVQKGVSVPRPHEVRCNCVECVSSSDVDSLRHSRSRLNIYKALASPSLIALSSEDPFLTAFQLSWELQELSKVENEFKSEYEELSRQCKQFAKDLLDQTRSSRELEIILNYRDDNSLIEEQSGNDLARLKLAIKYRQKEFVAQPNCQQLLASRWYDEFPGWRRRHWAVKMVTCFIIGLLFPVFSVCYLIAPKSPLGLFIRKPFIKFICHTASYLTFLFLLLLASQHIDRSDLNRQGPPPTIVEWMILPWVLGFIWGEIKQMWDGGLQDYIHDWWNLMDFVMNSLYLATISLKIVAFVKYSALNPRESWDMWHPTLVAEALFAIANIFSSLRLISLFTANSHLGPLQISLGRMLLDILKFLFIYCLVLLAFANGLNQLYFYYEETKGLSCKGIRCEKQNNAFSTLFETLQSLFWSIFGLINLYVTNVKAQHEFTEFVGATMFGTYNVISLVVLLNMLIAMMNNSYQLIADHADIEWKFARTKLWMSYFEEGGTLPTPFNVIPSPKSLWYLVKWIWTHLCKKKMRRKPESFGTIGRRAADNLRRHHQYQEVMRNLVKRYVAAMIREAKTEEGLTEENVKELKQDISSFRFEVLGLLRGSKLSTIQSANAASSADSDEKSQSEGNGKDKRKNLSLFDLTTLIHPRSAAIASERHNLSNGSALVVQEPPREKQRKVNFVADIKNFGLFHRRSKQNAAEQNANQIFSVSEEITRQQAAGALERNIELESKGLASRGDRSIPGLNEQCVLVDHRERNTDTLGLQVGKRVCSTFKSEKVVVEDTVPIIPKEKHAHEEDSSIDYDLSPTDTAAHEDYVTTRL
# protocol_notes: calcium entry via TRPC4 opening agents – cell-based, HEK293 TRPC4/mu-opioid, Fluo-4 calcium, dose response (AID 434937)
# Assay type: functional
The source made the active and inactive calls.

- molecule: "CCOC(=O)C1(Cc2ccccc2)CCN(Cc2c[nH]nc2-c2ccccc2)CC1"
  assayed_system: "UniProtKB Q9QUQ5"
  EC50: "6.68 µM (active)"
- molecule: "O=C(NC1CC1)C1=C[C@H](c2csc3ccccc23)C[C@H](OCc2ccc(CO)cc2)O1"
  assayed_system: "UniProtKB Q9QUQ5"
  EC50: "10.6 µM (active)"
- molecule: "O=C(COc1ccccc1)NNC(=S)NC(=O)c1ccc(Cl)cc1Cl"
  assayed_system: "UniProtKB Q9QUQ5"
  EC50: "4.73 µM (active)"
- molecule: "O=C(CC1C(=O)NCCN1Cc1ccc(-c2ccccc2)cc1)NCCc1ccccn1 (stereo not given)"
  assayed_system: "UniProtKB Q9QUQ5"
  EC50: "4.73 µM (active)"
- molecule: "COC(=O)c1ccc(N2CCN(C)CC2)c(NC(=O)COc2ccccc2)c1"
  assayed_system: "UniProtKB Q9QUQ5"
  EC50: "5.96 µM (active)"

====

The following molecules are shown together with reported AC50 values.
# assayed_system: UniProt:P07900
# Type: functional, organism-based
Activity calls are given as the source filed them.
measurement_kind: AC50

- molecule: "Cc1cc(/C=c2\\sc3nc4ccccc4n3c2=O)c(C)n1-c1ccc(C(=O)O)cc1"
  result: "24.5 µM (active)"
- molecule: "Oc1c(CN2CCCCC2)cc(Br)c2cccnc12"
  result: "6.04 µM (active)"
- molecule: "c1ccc(C(=NNc2nc3ccccc3s2)c2ccccn2)cc1"
  result: "16.4 µM (active)"
- molecule: "Cc1ccc(N/N=C(\\C#N)C(=N)S)c(C)c1"
  result: "1.84 µM (active)"
- molecule: "CC(C)(C)C(O)C(Oc1ccc(Cl)cc1)n1cncn1 (stereo unspecified)"
  result: "0.29 µM (active)"
- molecule: "COc1ccc(C2=CC3=C(Br)C(=O)C(C)(OC(=O)c4ccco4)C(=O)C3=CO2)cc1 (stereo unspecified)"
  result: "4.13 µM (active)"

====

# assayed_system: Sentrin-specific protease 7 (Homo sapiens);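 note: Luminescence-based dose-response confirmation of ultra-high-throughput screening hits, measuring inhibition of SENP7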
# Sequence (Q9BQF6 whole entry): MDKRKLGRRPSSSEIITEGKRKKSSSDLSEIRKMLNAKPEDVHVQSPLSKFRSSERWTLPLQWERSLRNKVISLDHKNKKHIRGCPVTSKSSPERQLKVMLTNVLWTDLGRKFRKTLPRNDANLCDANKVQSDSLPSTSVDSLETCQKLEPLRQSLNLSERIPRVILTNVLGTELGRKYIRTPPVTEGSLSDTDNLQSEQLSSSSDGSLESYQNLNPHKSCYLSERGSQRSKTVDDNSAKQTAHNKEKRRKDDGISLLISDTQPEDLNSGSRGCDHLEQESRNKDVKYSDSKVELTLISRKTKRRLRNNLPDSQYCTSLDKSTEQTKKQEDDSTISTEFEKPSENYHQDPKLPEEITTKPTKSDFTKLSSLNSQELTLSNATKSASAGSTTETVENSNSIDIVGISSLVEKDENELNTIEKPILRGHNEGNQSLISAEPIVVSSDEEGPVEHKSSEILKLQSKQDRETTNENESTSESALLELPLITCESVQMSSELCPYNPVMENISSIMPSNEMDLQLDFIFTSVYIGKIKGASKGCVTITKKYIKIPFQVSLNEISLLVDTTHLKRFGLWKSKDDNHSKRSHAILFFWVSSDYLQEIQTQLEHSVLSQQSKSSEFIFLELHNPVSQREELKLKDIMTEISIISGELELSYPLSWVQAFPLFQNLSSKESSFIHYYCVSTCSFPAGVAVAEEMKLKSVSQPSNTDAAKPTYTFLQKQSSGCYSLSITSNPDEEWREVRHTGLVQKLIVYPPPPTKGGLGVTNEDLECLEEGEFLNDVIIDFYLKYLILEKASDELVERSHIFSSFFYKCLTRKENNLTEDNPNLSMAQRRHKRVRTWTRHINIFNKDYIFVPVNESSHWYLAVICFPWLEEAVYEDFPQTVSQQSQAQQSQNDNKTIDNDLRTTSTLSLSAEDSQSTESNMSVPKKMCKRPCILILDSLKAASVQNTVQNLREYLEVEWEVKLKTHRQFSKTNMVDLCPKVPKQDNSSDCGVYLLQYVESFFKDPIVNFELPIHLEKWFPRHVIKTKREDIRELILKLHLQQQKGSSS
# Type: functional
The source made the active and inactive calls.
Outcomes: active, inactive

- structure_notation: "Cc1ccccc1-c1nc2sc3c(c2c(=O)o1)CCC3"
  label_value: "active"
- structure_notation: "CCn1c(SCc2ccccc2Cl)nc2ccccc21"
  label_value: "active"
- structure_notation: "Fc1cccc(F)c1-c1nc(-c2ccc(Cl)cc2)no1"
  label_value: "active"
- structure_notation: "O=C(NN=c1c(=O)c2ccccc2c1=O)c1ccccc1"
  label_value: "active"
- structure_notation: "Cc1ccccc1N1C(=O)Cc2ccccc2C1=O"
  label_value: "active"
- structure_notation: "CSc1nc2ccc(NC(=O)c3cc4ccccc4o3)cc2s1"
  label_value: "inactive"

====

# assayed_system: Replicative DNA helicase DnaB (Mycobacterium tuberculosis, UniProt P9WMR3)
# Sequence (P9WMR3 1-399, added parts left off): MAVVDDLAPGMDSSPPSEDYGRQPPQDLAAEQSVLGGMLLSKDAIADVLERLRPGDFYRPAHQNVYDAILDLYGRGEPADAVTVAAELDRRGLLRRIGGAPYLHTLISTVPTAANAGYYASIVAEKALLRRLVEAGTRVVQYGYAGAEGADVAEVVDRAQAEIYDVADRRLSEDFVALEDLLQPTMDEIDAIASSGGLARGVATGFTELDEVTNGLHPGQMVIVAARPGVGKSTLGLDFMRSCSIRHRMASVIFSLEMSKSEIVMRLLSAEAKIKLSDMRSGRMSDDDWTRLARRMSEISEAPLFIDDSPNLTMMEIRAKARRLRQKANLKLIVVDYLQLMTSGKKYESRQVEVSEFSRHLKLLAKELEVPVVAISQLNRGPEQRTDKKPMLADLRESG
# protocol_notes: DnaB intein splicing inhibitors, dose response, biochemical, cell-free fluorescence (AID 449749)
# Type: functional
Active and inactive are the calls of the source.

- compound: "Cc1ccc(Sc2ccc(NC(=O)CCl)cc2)cc1C"
  AC50: "2.51 µM (active)"
- compound: "CC(C)c1n[nH]c2c1C(c1cccs1)C(C#N)=C(N)O2 (stereo unspecified)"
  AC50: "10.8 µM (active)"
- compound: "COC(=O)c1cc([N+](=O)[O-])c(-n2ccnc2)c([N+](=O)[O-])c1"
  AC50: "6.54 µM (active)"
- compound: "O=C(CCl)Nc1cccc(Oc2ccccc2)c1"
  AC50: "11.9 µM (active)"
- compound: "COc1cccc(-n2nnnc2S(C)(=O)=O)c1"
  AC50: "3.14 µM (active)"
- compound: "COc1cc(C2NC(=O)C(C#N)=C(Nc3cccc(C)c3)S2)ccc1O (stereo unspecified)"
  AC50: "42 µM (active)"
- compound: "CCOc1cc(/C=C2/C(=N)N3OC(C)=CC3=NC2=O)ccc1O"
  AC50: "95.1 µM (active)"
- compound: "CCOC(=O)CC1=NN(c2ccccc2)C(=O)C1"
  AC50: "13.1 µM (active)"
- compound: "O=C(NN=c1c(=O)c2ccccc2c1=O)c1ccccc1"
  AC50: "3.42 µM (active)"
- compound: "O=[N+]([O-])c1c(NCCCO)cc(SCc2ccco2)c2nonc12"
  AC50: "57.7 µM (active)"
- compound: "COc1cc(C2(c3ccc(O)c(OC)c3)C(=O)Nc3c(Br)cc(Br)cc32)ccc1O"
  AC50: "3.13 µM (active)"
